Tested on: PAMPA artificial membrane permeability, pH 7.4
assay text: PAMPA permeability at pH 7.4 – biophysical, ADME assay (AID 624339)
recorded conditions: at 100 µM
Activity calls are given as the source filed them. How the calls were made is not given here.
Respond using exactly one of the listed classes: y for active, n for inactive

Query string: Query: recorded result category for CCCn1ncc(CN2CCCC(C(=O)c3cccc(OC(C)C)c3)C2)c1C (stereo unspecified) in this test
Result string: y

Query string: Query: recorded result category for COc1cc(NC(=O)c2cc(C3CC3)on2)c(OC)cc1Cl in this test
Result string: y

Query string: Query: recorded result category for Cc1ccc(N2CCN(S(=O)(=O)N3CCCCC3)CC2)c(C)c1 in this test
Result string: y

Query string: Query: recorded result category for Cc1ccc(-n2c(N)c(C#N)c(-c3ccccc3)c(C#N)c2=O)cc1 in this test
Result string: y

Query string: Query: recorded result category for Oc1cc(O)cc(/C=C/c2ccc(O)c(O)c2)c1 in this test
Result string: n

Query string: Query: recorded result category for CCCC(=O)Nc1cccc(NC(=O)c2ccccc2Br)c1 in this test
Result string: y

Query string: Query: recorded result category for Cc1ccc(S(=O)(=O)NCc2ccc(C(=O)NCCN(Cc3ccccc3)C(C)C)cc2)cc1 in this test
Result string: y

Query string: Query: recorded result category for O=C1NCCCc2c1oc1ccc(O)cc21 in this test
Result string: y

Query string: Query: recorded result category for COc1ccc(S(=O)(=O)N2CCN(S(=O)(=O)c3ccc4c(c3)OCCO4)CC2)cc1 in this test
Result string: y

Query string: Query: recorded result category for CCCOc1ccc(-c2nc(OC)c3ccccc3n2)cc1 in this test
Result string: y

Query string: Query: recorded result category for CC(C)C(=O)NC(c1ccco1)c1ccc2cccnc2c1O (stereo unspecified) in this test
Result string: y

Query string: Query: recorded result category for O=C(c1ccccn1)N(Cc1cccs1)C1(C(=O)NC2CCCCC2)CCCCC1 in this test
Result string: y

Query string: Query: recorded result category for O=C1CCCC2=C1C1(CCCC1)N=C(Nc1nc3ccccc3o1)N2 in this test
Result string: y

Query string: Query: recorded result category for COc1ccc(OC)c(-c2nnc3n2N=C(c2ccc(OC)c(OC)c2)CS3)c1 in this test
Result string: y

Query string: Query: recorded result category for O=C(COc1ccccc1Br)NCCc1nc2ccccc2[nH]1 in this test
Result string: y

Query string: Query: recorded result category for O=S(=O)(NC1CCCCC1N1CCOCC1)c1ccc(Cl)cc1 (stereo unspecified) in this test
Result string: y

Query string: Query: recorded result category for c1ccc2c(Nc3nnc(-c4ccncc4)s3)cccc2c1 in this test
Result string: y

Query string: Query: recorded result category for CN(C)c1nc(N)nc(CSc2nnnn2-c2cccc3ccccc23)n1 in this test
Result string: y

Query string: Query: recorded result category for CC(=O)c1ccc(N2CCN(S(=O)(=O)c3ccc4c(c3)CC(=O)N4)CC2)cc1 in this test
Result string: y

Query string: Query: recorded result category for CN(C)c1oc(-c2ccc(OCc3ccc(Cl)cc3)cc2)nc1C#N in this test
Result string: y

Query string: Query: recorded result category for NC(=O)C1CCN(c2nc(-c3ccc(Br)cc3)cs2)CC1 in this test
Result string: y

Query string: Query: recorded result category for CCOC(=O)C(C)Oc1cccc2c(=O)n(CC(=O)Nc3ccc4c(c3)OCCO4)ccc12 (stereo unspecified) in this test
Result string: y

Query string: Query: recorded result category for c1ccc(CC2CCN(c3ncnc4sccc34)CC2)cc1 in this test
Result string: y

Query string: Query: recorded result category for COc1ccc(CNCc2cccc3ccccc23)cc1 in this test
Result string: y

Query string: Query: recorded result category for CCCc1nc2c(=O)n(C)c(=O)nc-2n(C)n1 in this test
Result string: n

Query string: Query: recorded result category for Cc1ccc(NC(=O)CCC(=O)N/N=C/c2ccc([N+](=O)[O-])o2)cc1C in this test
Result string: y

Query string: Query: recorded result category for Brc1ccc2c(c1)CN1CCCC1=N2 in this test
Result string: y

Query string: Query: recorded result category for O=c1c(O)c(-c2cc(O)c(O)c(O)c2)oc2cc(O)cc(O)c12 in this test
Result string: n

Query string: Query: recorded result category for O=[N+]([O-])c1ccc(CN2CCOCCOCCN(Cc3ccc([N+](=O)[O-])cc3)CCOCC2)cc1 in this test
Result string: y

Query string: Query: recorded result category for COc1nc(-c2ccccc2)nnc1-c1ccccc1 in this test
Result string: y

Query string: Query: recorded result category for O=C(O)c1cccnc1SCCc1ccccc1 in this test
Result string: y

Query string: Query: recorded result category for COc1ccc(C2CC(c3ccccc3)=NN2c2ccc(S(N)(=O)=O)cc2)cc1 (stereo unspecified) in this test
Result string: y

Query string: Query: recorded result category for Cc1cc(-c2nnc3n2CCCCC3)c(C)n1-c1ccccc1 in this test
Result string: y

Query string: Query: recorded result category for CC1CCCN(C(C(=O)Nc2ccc3c(c2)OCCO3)c2ccccc2)C1 (stereo unspecified) in this test
Result string: y

Query string: Query: recorded result category for CCN1CCN(c2nc3ccccc3nc2C(C#N)C(=O)OC2CCCCC2)CC1 (stereo unspecified) in this test
Result string: y

Query string: Query: recorded result category for O=C(O)CCC(NS(=O)(=O)c1ccc(-c2ccccc2)cc1)C(=O)O (stereo unspecified) in this test
Result string: n

Query string: Query: recorded result category for N#Cc1ccccc1CSc1nc2ncc(Br)cc2[nH]1 in this test
Result string: y

Query string: Query: recorded result category for Cc1nc(SCc2nc3ccccc3[nH]2)c2oc3ccccc3c2n1 in this test
Result string: y

Query string: Query: recorded result category for CCCN1CNc2c(c(=O)[nH]c(=S)n2CCc2ccc(OC)c(OC)c2)C1 in this test
Result string: y

Query string: Query: recorded result category for COc1ccc(OC)c(S(=O)(=O)Nc2cnc3ccccc3c2)c1 in this test
Result string: y

Query string: Query: recorded result category for Cc1cccc(-n2cnc3cc(C(=O)N4CCCCC4)ccc32)c1 in this test
Result string: y

----------
Test system: PAMPA artificial membrane permeability, pH 7.4
assay text: PAMPA permeability at pH 7.4 – biophysical, ADME assay (AID 624339)
recorded conditions: at 100 µM
Activity calls are given as the source filed them. The rule behind the calls is not given here.
Respond using exactly one of the listed classes: active, inactive

Query string: Query: recorded result category for O=C(COC(=O)C12CC3CC(CC(C3)C1)C2)NCc1ccco1 in this test
Result string: active

Query string: Query: recorded result category for O=C(O)c1ccccc1OCc1ccccc1Br in this test
Result string: active

Query string: Query: recorded result category for Cc1cc2c(s1)c1cnn(Cc3ccccc3F)c(=O)c1n2C in this test
Result string: active

Query string: Query: recorded result category for CCCc1cc(C(=O)N(C2CCCCC2)C2CCCCC2)no1 in this test
Result string: inactive

Query string: Query: recorded result category for CCCN(CCC)CCNC(=O)C1CCN(Cc2nc(-c3ccc(Cl)cc3)oc2C)CC1 in this test
Result string: active

Query string: Query: recorded result category for C/C=C/Cn1c(SCCCc2ccccc2)nc2c1c(=O)[nH]c(=O)n2C in this test
Result string: active

Query string: Query: recorded result category for CN1CSC(=S)N(C)C1 in this test
Result string: active

Query string: Query: recorded result category for Cc1cc(C)nc(-n2nc(C)c(Sc3ccc(F)cc3)c2N)n1 in this test
Result string: active

Query string: Query: recorded result category for CS(=O)(=O)c1ccc(C(=O)OCC(=O)NC23CC4CC(CC(C4)C2)C3)cc1[N+](=O)[O-] in this test
Result string: active

Query string: Query: recorded result category for COc1ccc(N(C(=O)CCl)C(C(=O)NCCc2ccccc2)c2cccs2)cc1Cl (stereo not drawn) in this test
Result string: active

Query string: Query: recorded result category for O=c1oc2c(O)c(O)cc3c(=O)oc4c(O)c(O)cc1c4c23 in this test
Result string: inactive

Query string: Query: recorded result category for O=C(O)c1ccc(N2C(=O)/C(=C/c3ccc(-c4ccc([N+](=O)[O-])cc4)o3)C=C2c2ccccc2)cc1 in this test
Result string: inactive

Query string: Query: recorded result category for COc1ccc(CSc2nc(C)cc(=O)[nH]2)cc1 in this test
Result string: active

Query string: Query: recorded result category for CCc1nnc(NC(=O)c2ccc(NS(=O)(=O)c3ccccc3)cc2)s1 in this test
Result string: active

Query string: Query: recorded result category for Cc1ccc(S(=O)(=O)n2c(N)nc3ccccc32)cc1 in this test
Result string: active

Query string: Query: recorded result category for Cc1ccc(C)c(OCCn2cc(C(=O)O)c3ccccc32)c1 in this test
Result string: active

Query string: Query: recorded result category for O=C1C2CC=CCC2C(=O)N1c1n[nH]c(-c2ccccc2)n1 (stereo not drawn) in this test
Result string: active

Query string: Query: recorded result category for C=CCn1c(SCC(=O)c2ccc(O)c(O)c2)nnc1-c1ccccc1OC in this test
Result string: active

Query string: Query: recorded result category for Cc1cc(C)n(-c2nc(NCCCO)c3c4c(sc3n2)CCCC4)n1 in this test
Result string: active

Query string: Query: recorded result category for O=S1(=O)Nc2c(ccc3cccnc23)-c2ccccc21 in this test
Result string: active

Query string: Query: recorded result category for COc1ccc(S(=O)(=O)n2nc(OC(=O)c3ccccc3)cc2N)cc1 in this test
Result string: active

Query string: Query: recorded result category for COc1ccc(C2c3c(ncn(CCN4CCOCC4)c3=N)Oc3ccc4ccccc4c32)cc1OC (stereo not drawn) in this test
Result string: active

Query string: Query: recorded result category for O=c1[nH]c(SCc2ccc(Cl)cc2)nc2c1CCC2 in this test
Result string: active
